System: T-47D breast
assay.details: NCI-60 one-dose screen, 48 h (100 = growth as untreated, 0 = no growth, -100 = all killed)
measurement.context: 10 µM unless noted
The panel holds about 83,000 compounds, 20% with a hit somewhere; the sample as a whole holds those more often.
growth vs 70%: less than gives Fulfilled; not less than gives Not fulfilled.

Check out these entries, answers already filled in.
compound: Cc1c(N2CCCCC2)[nH]c2ccccc12
group: Not fulfilled

compound: COc1cccc2cc(N(C)c3ncnc4ccccc34)ccc12
group: Fulfilled

compound: COc1cccc(C2C3=C(COC3=O)N(CCO)c3cc4c(cc32)OCCO4)c1 (stereo not given)
group: Fulfilled

compound: O=[N+]([O-])c1ccc(Oc2cccc3c(Oc4ccc([N+](=O)[O-])cc4[N+](=O)[O-])cccc23)c([N+](=O)[O-])c1
group: Not fulfilled

Now take the following compound into account.
Hello, is growth of the following compound strictly smaller than 70%? "O=C(OCc1ccc2c(Br)cc(Br)c(O)c2n1)N1CCN(C(=O)c2cc3ccccc3[nH]2)CC1"
Fulfilled
